- Test system: K12877-001-R-J1-PDC complex spheroid viability;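 further: tumour cells co-cultured with HUVEC and mesenchymal stem cells in spheroids; spheroids exposed to agents for one week before readout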
- ASSAY METHOD TEXT: Anticancer human tumor K12877-001-R-J1-PDC patient-derived lung adenocarcinoma cell line growth inhibition [RAS]
- EXPERIMENTAL PARAMETERS: second compound 0.1 µM; first compound 0.01 µM; hits give low values
READOUT NAME: viability, T/C

The examples below pair each entry with its known result.
• O=C(c1ccc(F)c(F)c1Nc1ccc(I)cc1F)N1CC(O)([C@@H]2CCCCN2)C1 + C#Cc1c(F)ccc2cc(O)cc(-c3ncc4c(N5CC6CCC(C5)N6)nc(OCC56CCCN5CC(F)C6)nc4c3F)c12 = 107%
• Nc1ccn(C2OC(CO)C(O)C2(F)F)c(=O)n1 (stereo not drawn) + C=CC(=O)N1CCN(c2nc(OCC3CCCN3C)nc3c(F)c(-c4nc(N)cc(C)c4C(F)(F)F)c(Cl)cc23)C(C)C1 = 84.7%

Input: Any idea what its viability, T/C is? The compound is CC(C)n1nc(-c2ccc3oc(N)nc3c2)c2c(N)ncnc21 + C#Cc1c(F)ccc2cc(O)cc(-c3ncc4c(N5CC6CCC(C5)N6)nc(OCC56CCCN5CC(F)C6)nc4c3F)c12
Output: 94.2%
